As shown below, each of these compounds has a reported pIC50 value.
- Tested on: TE-5;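 further: inhibition of cell growth, read out by a cell viability assay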
- ASSAY TEXT: cells
- Type: functional, cell-based
- RUN PARAMETERS: Homo sapiens
- Description: SANGER: Inhibition of human TE-5 cell growth in a cell viability assay.
pIC50: −log10 of the molar value.

{"columns": ["COMPOUND", "MEASURED TARGET", "pIC50"],
 "data": [
  ["Cc1nc(Nc2ncc(C(=O)Nc3c(C)cccc3Cl)s2)cc(N2CCN(CCO)CC2)n1", "TE-5", "< 5.89"],
  ["Cn1cc(/C=C2\\C(=O)Nc3cccnc32)c2ccccc21", "TE-5", "< 5.70"],
  ["C/C=C(/C)C(=O)O[C@H]1C(C)=C2[C@H]([C@@H]1OC(=O)CCCCCCC)[C@@](C)(OC(C)=O)C[C@H](OC(=O)CCC)[C@@]1(O)[C@H]2OC(=O)[C@@]1(C)O", "TE-5", "< 6.29"]
]}

pIC50 recorded for this compound, "C[C@]1(c2nc3c(C(N)=O)cccc3[nH]2)CCCN1" , is < 5.30

pIC50 recorded for this compound, "CCCS(=O)(=O)Nc1ccc(F)c(C(=O)c2c[nH]c3ncc(Cl)cc23)c1F" , is < 5.00

pIC50 recorded for this compound, "Cc1[nH]c(/C=C2\C(=O)Nc3ccc(S(=O)(=O)Cc4c(Cl)cccc4Cl)cc32)c(C)c1C(=O)N1CCC[C@@H]1CN1CCCC1" , is < 5.70

pIC50 recorded for this compound, "Cc1ccc(NC(=O)c2cccc(C(C)(C)C#N)c2)cc1Nc1ccc2ncn(C)c(=O)c2c1" , is < 5.40

pIC50 recorded for this compound, "Cc1n[nH]c2ccc(-c3cncc(OC[C@@H](N)Cc4c[nH]c5ccccc45)c3)cc12" , is 6.77

pIC50 recorded for this compound, "CC[C@@]1(O)C(=O)OCc2c1cc1n(c2=O)Cc2cc3ccccc3nc2-1" , is 8.13

pIC50 recorded for this compound, "Fc1cc(-c2cc[nH]/c(=N/c3ccc(-n4cnc(N5CCOCC5)n4)cc3)n2)cc(N2CCOCC2)c1" , is 6.47

pIC50 recorded for this compound, CC(O)(CS(=O)(=O)c1ccc(F)cc1)C(=O)Nc1ccc(C#N)c(C(F)(F)F)c1 (configuration not stated) [BICALUTAMIDE] , is < 5.99

pIC50 recorded for this compound, CCn1c(-c2nonc2N)nc2cnc(Oc3cccc(NC(=O)c4ccc(OCCN5CCOCC5)cc4)c3)cc21 [GSK-269962A] , is < 5.60
